assay: Cmax in Sprague-Dawley rat at 10 mg/kg, po by LC/MS/MS analysis; type: ADME, organism-based; parameters: dose 10 mg/kg, route po; details: in vivo
valueType: Cmax
The answer should read as a number with its unit following.

Prompt: Quick check: Cmax of CCCn1c(=O)c2c3c(sc2n2cnnc12)CC(C(C)(C)C)CC3 (stereo in doubt) ?
Completion: 20 ng/mL

----------
test: Selectivity index, ratio of CC50 for cytotoxicity against human H1-HeLa cells to EC50 for antiviral activity against Human rhinovirus A71 infected in human H1-HeLa cells; assay type: toxicity, cell-based; settings: H1-HeLa cells, read-out: Ratio CC50/EC50
Listing of entries alongside the reported selectivity ratio.
// keep it numeric: no unit symbol after the value

For orientation, consider the following solved cases.
CC(C)(C)C1CCc2c(sc3c2c(=O)n(C2CC2)c2nncn32)C1 (centres undefined); 8.2
Cc1cc(CCCOc2c(C)cc(-c3noc(C(F)(F)F)n3)cc2C)on1 [PLECONARIL]; 1700
CC(C)(C)C1CCc2c(sc3c2c(=O)n(-c2ccccc2)c2nncn32)C1 (centres undefined); 8.1

Turning now to a further record.
Prompt: Quick check: selectivity ratio of CCCn1c(=O)c2c3c(sc2n2cnnc12)CC(C(C)(C)C)CC3 (stereo in doubt) ?
Completion: 33.2
